Target or system SF-539 CNS: recorded GI50 listed per item.

Below, 10 molecules whose answers are already recorded.
>  <molecule>
Cn1cc(-c2csc(-c3c[nH]c4ncccc34)n2)c2cc(Br)cnc21

>  <GI50>
27.7 µM

$$$$
>  <molecule>
CC(C)=CC/C=C(/C)[C@H]1CC[C@]2(C)[C@@H]1CC[C@@H]1[C@@]3(C)CCC(=O)NC(C)(C)[C@@H]3CC[C@]12C

>  <GI50>
16.5 µM

$$$$
>  <molecule>
Fc1ccc(-c2nc(-c3nc4ccc(Cl)cc4[nH]3)cc3c2[nH]c2ccccc23)cc1

>  <GI50>
3.55 µM

$$$$
>  <molecule>
O=S(=O)(NCCNc1nccc(-c2c(-c3cccc(O)c3)nc3sccn23)n1)c1ccc(F)cc1

>  <GI50>
5.23 µM

$$$$
>  <molecule>
COC(=O)[C@]12CC[C@@H](C)[C@H](C)[C@@H]1C1=CC[C@@H]3[C@@]4(C)C[C@@H](OC(=O)c5ccco5)[C@H](O)[C@@](C)(CO)[C@@H]4[C@H](O)C[C@@]3(C)[C@]1(C)CC2

>  <GI50>
2.28 µM

$$$$
>  <molecule>
N#Cc1ccc(Oc2nccc(-c3c(-c4ccc(F)cc4)ncn3C3CCNCC3)n2)cc1

>  <GI50>
> 25 µM

$$$$
>  <molecule>
C=C1CC[C@@H]2C(C)(C)[C@@H](O)CC[C@@]2(C)[C@@H]1COc1ccc2ccc(=O)oc2c1

>  <GI50>
14.7 µM

$$$$
>  <molecule>
Cc1ccc(/C=C(\C#N)n2nnc3cc(Cl)c(Cl)cc32)cc1

>  <GI50>
2.53 µM

$$$$
>  <molecule>
CCCCCCN(CCCCCC)CCCNc1nccc2ccccc12

>  <GI50>
1.94 µM

$$$$
>  <molecule>
COc1ccc2c(c1)C(=O)c1c-2n(CCCN=[N+]=[N-])c(=O)c2ccccc12

>  <GI50>
44.8 µM

$$$$

GI50 in this record for N/C(=N\O)c1ncc(-c2ccc(C(F)(F)F)cc2)c(NC2CCCCCC2)n1 : 3.39 µM

GI50 in this record for O=C(Oc1cccnc1)c1ccccc1Nc1ccnc(C(F)(F)F)c1 : 0.0428 µM

GI50 in this record for O=C1NC(=NCC(CO)c2ccccc2)S/C1=C\c1ccc2ncccc2c1 (stereo not drawn) : 11.2 µM
